Each entry below carries its reported Muscle weight (right/left difference).
- System: soleus muscle
- assay: rat muscle function test: muscle weight (atrophy of immobilized extremity)
- Assay type: in vivo, male Wistar rats
- stated conditions: oral, 1x per day for 3 weeks, as a rule 25 mg/kg, difference ≤25% classified as an effect
- Excerpt: 1. Activity in the rat muscle function test Male Wistar rats (body weight about 300 g) were kept under standard conditions with feed and water ad libitum. The right rear extremity was immobilized by fitting a kind of "shoe" to the animals under short-term anaesthesia. […]
recorded endpoint: Muscle weight (right/left difference)

CCCn1cnc2c1c(=O)n(CCCCCP(=O)(OCC)OCC)c(=O)n2C | 0 Δ %
CCOP(=O)(OCC)C(C)(C)CCCCn1c(=O)c2c(ncn2CCOC)n(C)c1=O | 0 Δ %
CCOCn1cnc2c1c(=O)n(CCCCP(=O)(OCC)OCC)c(=O)n2Cc1ccccc1 | 0 Δ %
CCOP(=O)(CCCCn1c(=O)c2c(ncn2CC)n(C)c1=O)OCC | 0 Δ %
CCOP(=O)(CCCCn1c(=O)c2[nH]cnc2n(C)c1=O)OCC | -20 Δ %
CCOCn1cnc2c1c(=O)n(CCCCP(=O)(OCC)OCC)c(=O)n2C | -22 Δ %
CCOP(=O)(CCCn1cnc2c1c(=O)[nH]c(=O)n2C)OCC | -22 Δ %
CCOP(=O)(CCCCn1cnc2c1c(=O)n(CCCCC(C)(C)O)c(=O)n2C)OCC | 0 Δ %
CCCn1cnc2c1c(=O)n(CCCCP(=O)(OCC)OCC)c(=O)n2C | 0 Δ %
CP(C)(=O)Cn1c(=O)c2c(ncn2CC2CC2)n(-c2ccccc2)c1=O | 0 Δ %
CCCCn1cnc2c1c(=O)n(CCCCCP(=O)(OCC)OCC)c(=O)n2C | 0 Δ %
CCCCn1c(=O)c2c(ncn2CCCCCP(=O)(OCC)OCC)n(CCCC)c1=O | -13 Δ %
CCCn1cnc2c1c(=O)n(CCCCCP(=O)(OCC)OCC)c(=O)n2CC | -17 Δ %
CCOP(=O)(CCCn1c(=O)c2c(ncn2CC2CC2)n(C)c1=O)OCC | -17 Δ %
CCOP(=O)(CCCn1c(=O)c2c(ncn2C(C)C)n(C)c1=O)OCC | 0 Δ %
CCOCn1c(=O)c2c(ncn2CCCCP(=O)(OCC)OCC)n(C)c1=O | 0 Δ %
CCCn1c(=O)c2c(ncn2CCCCP(=O)(OCC)OCC)n(C)c1=O | -24 Δ %
CCOP(=O)(CCCCn1cnc2c1c(=O)n(CCC(C)C)c(=O)n2C)OCC | 0 Δ %

====

- Tested on: phosphodiesterase III
- assay: inhibition of phosphodiesterase III activity
- Assay type: biochemical
- stated conditions: at 100 μM
recorded endpoint: PDE III Inhibition (%)

CCOP(=O)(CCCn1c(=O)c2c(ncn2C(C)C)n(C)c1=O)OCC | 64
CCCn1cnc2c1c(=O)n(CCCP(=O)(OCC)OCC)c(=O)n2C | 59
CCOP(=O)(CCCCCn1c(=O)c2c(ncn2CC)n(C)c1=O)OCC | 65
CCOP(=O)(CCCn1c(=O)c2c(ncn2CC)n(C)c1=O)OCC | 82
CCCn1cnc2c1c(=O)n(CCCCCP(=O)(OCC)OCC)c(=O)n2C | 77
CCCn1cnc2c1c(=O)n(CCCCP(=O)(OCC)OCC)c(=O)n2C | 65
CCCCn1cnc2c1c(=O)n(CCCCCP(=O)(OCC)OCC)c(=O)n2C | 52
